Tested System: MER (Homo sapiens)
Sequence (Q12866 21-999): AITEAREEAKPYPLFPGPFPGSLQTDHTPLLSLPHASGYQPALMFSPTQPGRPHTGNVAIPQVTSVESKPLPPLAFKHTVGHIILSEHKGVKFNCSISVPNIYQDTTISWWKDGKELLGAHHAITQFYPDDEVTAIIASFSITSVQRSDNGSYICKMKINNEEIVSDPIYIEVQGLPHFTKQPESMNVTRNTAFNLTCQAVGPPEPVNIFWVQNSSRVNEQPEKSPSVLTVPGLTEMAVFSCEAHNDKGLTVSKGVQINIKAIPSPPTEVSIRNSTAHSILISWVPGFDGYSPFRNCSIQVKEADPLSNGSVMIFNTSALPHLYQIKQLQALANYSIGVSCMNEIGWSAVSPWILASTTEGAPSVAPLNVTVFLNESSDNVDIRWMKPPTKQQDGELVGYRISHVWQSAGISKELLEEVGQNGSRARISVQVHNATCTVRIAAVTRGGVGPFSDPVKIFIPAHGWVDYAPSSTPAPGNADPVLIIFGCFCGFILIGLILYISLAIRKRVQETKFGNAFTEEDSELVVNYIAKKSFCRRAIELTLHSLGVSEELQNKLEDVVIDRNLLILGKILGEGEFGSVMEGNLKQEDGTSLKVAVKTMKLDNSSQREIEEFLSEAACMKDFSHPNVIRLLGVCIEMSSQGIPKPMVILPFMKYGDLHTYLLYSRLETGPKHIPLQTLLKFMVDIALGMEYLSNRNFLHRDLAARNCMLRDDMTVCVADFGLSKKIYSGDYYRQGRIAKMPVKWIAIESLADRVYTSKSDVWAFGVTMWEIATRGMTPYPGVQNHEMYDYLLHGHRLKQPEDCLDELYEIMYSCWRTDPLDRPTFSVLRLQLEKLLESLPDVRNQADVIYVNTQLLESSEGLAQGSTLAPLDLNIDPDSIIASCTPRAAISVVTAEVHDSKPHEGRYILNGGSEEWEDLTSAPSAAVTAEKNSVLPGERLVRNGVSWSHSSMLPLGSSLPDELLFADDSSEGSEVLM
Assay Remarks: Inhibition of MER kinase activity in primary macrophages (Western blot)
Format: cell-based
Experimental Context: primary macrophages from human PBMCs, 2 hours pretreatment, MAB8912 stimulation, N=2 (FIG. 4); read-out: IC50, pMER inhibition
pIC50: −log10 of the molar value.
Readout Label: pIC50

{"Sample Smiles": "CC(C)C(=O)N1CCC(c2cc(-c3ccc(NC(=O)c4cn(C(C)C)c(=O)n(-c5ccccn5)c4=O)cc3)c3c(N)ncnn23)CC1", "Tested System": "MER (Homo sapiens)", "Result Number": 8.80}

* * *

Tested System: AXL (Homo sapiens, UniProt P30530)
Construct: tumor cell lines expressing high levels of endogenous AXL; endogenous in cells; host or cells: H1299
Sequence (P30530 26-894): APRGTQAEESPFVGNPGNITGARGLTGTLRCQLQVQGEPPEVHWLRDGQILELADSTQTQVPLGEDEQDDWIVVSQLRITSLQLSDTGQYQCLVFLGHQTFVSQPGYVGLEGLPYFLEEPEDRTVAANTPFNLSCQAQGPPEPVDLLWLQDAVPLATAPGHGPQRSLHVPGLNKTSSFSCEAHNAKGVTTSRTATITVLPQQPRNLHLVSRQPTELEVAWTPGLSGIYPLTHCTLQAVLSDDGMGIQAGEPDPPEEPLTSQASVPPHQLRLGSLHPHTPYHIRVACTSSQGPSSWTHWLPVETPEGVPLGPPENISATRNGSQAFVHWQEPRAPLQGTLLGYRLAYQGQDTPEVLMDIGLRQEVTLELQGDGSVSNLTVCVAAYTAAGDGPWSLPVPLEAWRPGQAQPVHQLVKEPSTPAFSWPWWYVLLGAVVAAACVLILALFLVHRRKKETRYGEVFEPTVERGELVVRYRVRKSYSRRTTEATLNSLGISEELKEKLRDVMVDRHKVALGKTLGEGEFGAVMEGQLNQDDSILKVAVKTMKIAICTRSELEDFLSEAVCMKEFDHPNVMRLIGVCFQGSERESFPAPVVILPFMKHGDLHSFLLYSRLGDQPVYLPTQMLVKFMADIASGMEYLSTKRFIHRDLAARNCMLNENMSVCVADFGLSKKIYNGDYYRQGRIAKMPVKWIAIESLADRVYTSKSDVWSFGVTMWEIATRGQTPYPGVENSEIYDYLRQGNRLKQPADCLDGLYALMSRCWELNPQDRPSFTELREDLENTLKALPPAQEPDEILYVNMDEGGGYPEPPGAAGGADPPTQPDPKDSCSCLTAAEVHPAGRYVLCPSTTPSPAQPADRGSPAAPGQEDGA
Assay Remarks: pAXL inhibition assay in H1299 cells (ELISA)
Format: cell-based
Experimental Context: rhGAS6 stimulation, N=19 (FIG. 2)

{"Sample Smiles": "CC(C)C(=O)N1CCC(c2cc(-c3ccc(NC(=O)c4cn(C(C)C)c(=O)n(-c5ccccn5)c4=O)cc3)c3c(N)ncnn23)CC1", "Display Unit": "nM", "IC50": 1.8}
